Origin of values: patent US20080058636A1

# MEASURED_ON: rat collagen (acid soluble, type I, rat tail, Upstate 08-115) (rat) (UniProt P02454)
# Sequence (P02454 152-1207, chain 1 of 2): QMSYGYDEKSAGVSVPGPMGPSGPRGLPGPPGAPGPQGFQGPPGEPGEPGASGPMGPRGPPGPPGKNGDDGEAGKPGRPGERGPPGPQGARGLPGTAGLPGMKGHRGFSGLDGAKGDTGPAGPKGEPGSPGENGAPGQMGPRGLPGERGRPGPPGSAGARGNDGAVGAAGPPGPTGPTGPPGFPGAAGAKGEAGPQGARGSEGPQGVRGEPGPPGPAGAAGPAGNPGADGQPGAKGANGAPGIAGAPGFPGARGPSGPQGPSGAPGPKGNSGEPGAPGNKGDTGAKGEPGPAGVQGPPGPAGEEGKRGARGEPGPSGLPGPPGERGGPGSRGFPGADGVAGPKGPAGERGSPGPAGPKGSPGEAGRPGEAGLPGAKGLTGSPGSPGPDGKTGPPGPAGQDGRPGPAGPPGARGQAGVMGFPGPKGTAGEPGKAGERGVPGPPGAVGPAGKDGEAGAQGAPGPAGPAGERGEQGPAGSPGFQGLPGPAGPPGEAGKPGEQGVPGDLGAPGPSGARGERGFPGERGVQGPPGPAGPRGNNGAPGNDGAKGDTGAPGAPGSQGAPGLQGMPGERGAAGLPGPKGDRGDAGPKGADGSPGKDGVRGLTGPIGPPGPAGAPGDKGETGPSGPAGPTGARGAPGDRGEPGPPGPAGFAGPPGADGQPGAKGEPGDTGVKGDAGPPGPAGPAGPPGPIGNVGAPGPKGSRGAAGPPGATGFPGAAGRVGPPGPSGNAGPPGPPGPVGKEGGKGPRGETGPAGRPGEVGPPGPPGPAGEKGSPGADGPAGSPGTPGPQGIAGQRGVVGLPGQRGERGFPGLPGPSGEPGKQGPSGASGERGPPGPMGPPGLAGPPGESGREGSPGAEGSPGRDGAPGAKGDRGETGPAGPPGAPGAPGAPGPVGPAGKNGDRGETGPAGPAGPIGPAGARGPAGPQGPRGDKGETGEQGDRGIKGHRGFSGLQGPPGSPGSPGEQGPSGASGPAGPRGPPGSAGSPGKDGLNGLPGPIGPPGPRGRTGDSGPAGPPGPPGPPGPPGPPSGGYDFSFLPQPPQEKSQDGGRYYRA
# Sequence (P02466 86-1125, chain 2 of 2, further chain): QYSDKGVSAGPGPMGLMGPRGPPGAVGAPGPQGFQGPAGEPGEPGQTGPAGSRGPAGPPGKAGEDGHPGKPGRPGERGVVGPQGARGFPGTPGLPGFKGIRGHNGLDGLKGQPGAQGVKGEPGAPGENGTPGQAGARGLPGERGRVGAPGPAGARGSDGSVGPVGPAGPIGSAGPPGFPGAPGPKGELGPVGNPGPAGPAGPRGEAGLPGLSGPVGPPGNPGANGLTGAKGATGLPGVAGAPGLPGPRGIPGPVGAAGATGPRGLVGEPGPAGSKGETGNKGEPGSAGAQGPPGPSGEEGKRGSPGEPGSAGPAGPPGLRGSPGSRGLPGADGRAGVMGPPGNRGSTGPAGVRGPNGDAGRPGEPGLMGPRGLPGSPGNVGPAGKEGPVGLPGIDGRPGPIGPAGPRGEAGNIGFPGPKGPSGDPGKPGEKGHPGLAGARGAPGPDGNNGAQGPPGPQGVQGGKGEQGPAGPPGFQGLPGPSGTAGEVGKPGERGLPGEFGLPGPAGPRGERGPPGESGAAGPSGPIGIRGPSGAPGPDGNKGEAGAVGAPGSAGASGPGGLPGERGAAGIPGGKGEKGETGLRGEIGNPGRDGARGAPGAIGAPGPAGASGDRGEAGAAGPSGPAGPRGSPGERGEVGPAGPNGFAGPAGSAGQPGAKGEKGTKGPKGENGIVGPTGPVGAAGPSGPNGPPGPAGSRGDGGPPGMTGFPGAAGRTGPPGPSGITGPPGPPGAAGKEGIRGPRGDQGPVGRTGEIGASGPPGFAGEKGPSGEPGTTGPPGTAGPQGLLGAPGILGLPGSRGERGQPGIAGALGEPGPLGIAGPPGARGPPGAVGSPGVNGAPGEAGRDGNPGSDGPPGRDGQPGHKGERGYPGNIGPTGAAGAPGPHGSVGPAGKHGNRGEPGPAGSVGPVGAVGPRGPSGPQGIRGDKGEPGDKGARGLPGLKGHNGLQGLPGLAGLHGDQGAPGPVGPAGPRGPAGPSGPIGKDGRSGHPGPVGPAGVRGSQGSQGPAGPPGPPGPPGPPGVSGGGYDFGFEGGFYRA
# PROTOCOL_SUMMARY: dried collagen assay, 5 uM each
TEST_READOUT: Rat binding (%)

>  <BINDER>
GQWHCTTLFPHNYCLYG [Compound ID 924]

>  <U>
%

>  <Rat binding>
1

$$$$
>  <BINDER>
GKWHCYKYFPHHYCLYG [Compound ID 991]

>  <U>
%

>  <Rat binding>
11

$$$$
>  <BINDER>
KKLWHCYTYFPHHYCVYG [Compound ID 1017]

>  <U>
%

>  <Rat binding>
18

$$$$
>  <BINDER>
GFKWHCTTYFPHHYCLYG [Compound ID 983]

>  <U>
%

>  <Rat binding>
59

$$$$
>  <BINDER>
GQWHCTRRFPHHYCLYG [Compound ID 900]

>  <U>
%

>  <Rat binding>
1

$$$$
>  <BINDER>
GKWHCTTYFPHWYCLYG [Compound ID 948]

>  <U>
%

>  <Rat binding>
17

$$$$

a: GKWHCTTYFPHHYCLYY [Compound ID 949]
b: GQWKCTTRFPHHYCLYG [Compound ID 956]
Return label of the item with the larger Rat binding. Candidates: a , b . // return label of chosen record
a
